# Tested on: Human immunodeficiency virus 1
# experiment: Antiviral activity against Human immunodeficiency virus 1 R5 primary isolate YTA48P infected in CCR5-expressing human PM1 cells assessed as inhibition of virus-induced cytopathogenicity after 7 days by WST8 assay
# Format: functional, organism-based
# condition.summary: PM1, 168 h
What pIC50 was measured for each of the following?
Numbers only, as −log10 of the molar value.

Solved entries (count: 3):
{"molecule": "Cc1ccc(NC(=O)C(=O)NC2CC3(CCCCC3)NC3(CCCCC3)C2)cc1Cl (stereo not given)", "pIC50": 5.21}
{"molecule": "Cc1cc(NC(=O)C(=O)NC2CC3(CCCCC3)NC3(CCCCC3)C2)ccc1Cl (stereo not given)", "pIC50": 5.59}
{"molecule": "O=C(Nc1ccc(Cl)c(F)c1)C(=O)NC1CC2(CCCCC2)NC2(CCCCC2)C1 (stereo not given)", "pIC50": 6.64}

Go through the list and state pIC50 for each entry.
1. CC1(C)CC(NC(=O)C(=O)Nc2ccc(Cl)cc2)CC(C)(C)N1
2. CC1(C)CC(NC(=O)C(=O)Nc2ccc(Cl)c(Cl)c2)CC(C)(C)N1
3. Cc1ccc(NC(=O)C(=O)NC2CC(C)(C)NC(C)(C)C2)cc1
4. Cc1cc(NC(=O)C(=O)NC2CC(C)(C)NC(C)(C)C2)ccc1Cl
5. CC1(C)CC(NC(=O)C(=O)Nc2ccc(Cl)c(F)c2)CC(C)(C)N1

Completion:
6.21
5.39
5.05
5.48
6.49

---

# System: Human immunodeficiency virus 1
# experiment: Antiviral activity against Human immunodeficiency virus 1 R5 primary isolate YTA48P infected in CCR5-expressing human PM1 cells assessed as inhibition of virus-induced cytopathogenicity after 7 days by WST8 assay
# Type: functional, organism-based
# condition.summary: PM1, 168 h
recorded.endpoint: IC50 (nM)
Answers are plain numbers, in nM.

{"compound": "O=C(Nc1ccc(Cl)cc1)C(=O)NC1CC2(CCCCC2)NC2(CCCCC2)C1 (configuration not stated)", "IC50, nM": 430}

Parameters: items (list). Returns: IC50 for each item.
1. Cc1ccc(NC(=O)C(=O)NC2CC(C)(C)NC(C)(C)C2)cc1F
2. Cc1ccc(NC(=O)C(=O)NC2CC3(CCCCC3)NC3(CCCCC3)C2)cc1Br (configuration not stated)
3. Cc1ccc(NC(=O)C(=O)NC2CC3(CCCCC3)NC3(CCCCC3)C2)cc1F (configuration not stated)
4. Cc1ccc(NC(=O)C(=O)NC2CC(C)(C)NC(C)(C)C2)cc1Cl

Completion:
[2800, 3200, 540, 3200]

Prompt: # return recorded IC50 for input O=C(Nc1ccc(Cl)c(Cl)c1)C(=O)NC1CC2(CCCCC2)NC2(CCCCC2)C1 (configuration not stated)
Completion: 620
